Kindly state CC50 at 48 h for each of the entries shown.
Measurement description: Cytotoxic assay (MTT) against BHK-21 cells
Assay type: cell-based
Conditions used: hamster, read-out: CC50 (50% cytotoxic concentration)

For the compound CC1(C)CC[C@]2(C(=O)NCCNCCN)CC[C@]3(C)C(=CCC4[C@@]5(C)CCC(=O)C(C)(C)C5CC[C@]43C)C2C1 (some centres unmarked) , give its reported CC50 at 48 h.
> 463 µM

Recall and state the measured CC50 at 48 h for CC1(C)CC[C@]2(C(=O)N3CCCNCC3)CC[C@]3(C)C(=CCC4[C@@]5(C)Cc6c([nH]c7ccccc67)C(C)(C)C5CC[C@]43C)C2C1 (some centres unmarked) .
> 410 µM

Return CC50 at 48 h (reported value) for this compound: CC1(C)CC[C@]2(C(=O)NCCCNCCCCNCCCN)CC[C@]3(C)C(=CCC4[C@@]5(C)Cc6c([nH]c7ccccc67)C(C)(C)C5CC[C@]43C)C2C1 (some centres unmarked)
> 351 µM

Fill in reported CC50 at 48 h for this entry: CC1(C)CC[C@]2(C(=O)NCCN3CCNCC3)CC[C@]3(C)C(=CCC4[C@@]5(C)CCC(=O)C(C)(C)C5CC[C@]43C)C2C1 (some centres unmarked)
111 µM

Return CC50 at 48 h for the following compound: CC1(C)CC[C@]2(CO)CC[C@]3(C)C(NCCC4[C@@]5(C)CC[C@H](O)C(C)(C)C5CC[C@]43C)C2C1 (some centres unmarked)
> 544 µM

----------
Tested on: MDCK cells
Measurement description: Cytotoxicity assay (MTT) in MDCK cells
Assay type: cell-based, Canine
Conditions used: 72 h, read-out: CC50 (50% cytotoxic concentration)
Quantity name: CC50 (µM)
# unit: µM | format: bare number

Report CC50, nothing else, for this compound: CC1(C)CC[C@]2(C(=O)NCCNCCN)CC[C@]3(C)C(=CCC4[C@@]5(C)CCC(=O)C(C)(C)C5CC[C@]43C)C2C1 (stereo partly shown)
50

----------
Assignment: determine reported melting point for the given compounds.
Expressed in °C, but write only the number.

Fill in reported melting point for this entry: CC1(C)CC[C@]2(C(=O)N3CCCNCC3)CC[C@]3(C)C(=CCC4[C@@]5(C)CCC(=O)C(C)(C)C5CC[C@]43C)C2C1 (some centres unmarked)
174

Supply measured melting point of COC(=O)[C@]12CCC(C)(C)CC1C1=CCC3[C@@]4(C)CC[C@H](NC(=O)c5ccccc5C(=O)O)C(C)(C)C4CC[C@@]3(C)[C@]1(C)CC2 (some centres unmarked) in your reply.
240

Report measured melting point; entry is CC1(C)CC[C@]2(C(=O)N3CCCN(CC#N)CC3)CC[C@]3(C)C(=CCC4[C@@]5(C)CCC(=O)C(C)(C)C5CC[C@]43C)C2C1 (some centres unmarked)
191

Annotate the compound CC1(C)CC[C@]2(C(=O)NCCN3CCNCC3)CC[C@]3(C)C(=CCC4[C@@]5(C)CCC(=O)C(C)(C)C5CC[C@]43C)C2C1 (some centres unmarked) with its measured melting point.
175

Look up melting point of CC1(C)CC[C@]2(C(=O)NCCCNCCCCNCCCN)CC[C@]3(C)C(=CCC4[C@@]5(C)Cc6c([nH]c7ccccc67)C(C)(C)C5CC[C@]43C)C2C1 (some centres unmarked) and report it.
138
